src = paper PMC10397247

Target: T1, 4H3939-AA
T1 chain: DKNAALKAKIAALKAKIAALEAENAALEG
Test: two-hybrid library CCmax;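 also: natural log of median RNA to DNA barcode read ratio; higher means stronger binding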
Conditions: mean of both orientations

{"columns": ["Binder", "interaction score"],
 "data": [
  ["DKIAALKAKIAALKAENAALEAKNAALEG [4H2903-AA]", -1.78],
  ["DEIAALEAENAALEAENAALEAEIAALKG [4H146-AA]", -1.52],
  ["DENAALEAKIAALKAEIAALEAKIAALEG [4H1349-AA]", 0.491],
  ["DKIAALKAKNAALEAENAALEAEIAALEG [4H2961-AA]", -1.84],
  ["DKNAALEAKIAALKAKNAALEAKIAALKG [4H3446-AA]", -1.83],
  ["DKIAALKAENAALEAEIAALKAENAALEG [4H2699-AA]", -1.77],
  ["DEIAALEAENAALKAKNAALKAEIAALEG [4H249-AA]", -1.85],
  ["DKNAALKAEIAALEAKIAALKAKIAALEG [4H3629-AA]", -0.964],
  ["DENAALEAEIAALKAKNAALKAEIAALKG [4H1146-AA]", -1.69],
  ["DEIAALEAKIAALKAKNAALKAENAALKG [4H380-AA]", 0.0894],
  ["DKIAALKAENAALEAKIAALEAKNAALKG [4H2728-AA]", -1.01],
  ["DENAALKAKIAALKAKNAALKAEIAALEG [4H1913-AA]", -1.9],
  ["DKNAALKAEIAALEAEIAALKAENAALEG [4H3595-AA]", -0.576],
  ["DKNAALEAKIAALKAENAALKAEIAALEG [4H3417-AA]", -1.87]
]}
